Record form. Attribute: Ratio Ki. Fill in for each entry.
assay: Selectivity ratio of Ki for recombinant full lenght human PDE4A to bovine brain PDE1
// print number alone

For record "CN1Cc2c(nn(Cc3ccc(-c4ccccn4)cc3)c2Nc2ccccc2)N2C1=N[C@@H]1CCC[C@@H]12" the listed Ratio Ki is 720

For record "CN1C(=O)c2c(nn(Cc3ccc(-c4cccc(F)n4)cc3)c2Oc2ccccc2)N2C1=N[C@@H]1CCC[C@@H]12" the listed Ratio Ki is 83

For record "CN1C(=O)c2c(nn(Cc3ccc(-c4cccc(F)n4)cc3)c2Cc2ccc(F)cc2)N2C1=N[C@@H]1CCC[C@@H]12" the listed Ratio Ki is 339

For record "CN1C(=O)c2c(nn(Cc3ccc(S(C)(=O)=O)cc3)c2Nc2ccccc2)N2C1=N[C@@H]1CCC[C@@H]12" the listed Ratio Ki is 133

For record "CN1C(=O)c2c(nn(Cc3ccc(-c4ccc(F)cc4)cc3)c2Nc2ccccc2)N2C1=N[C@@H]1CCC[C@@H]12" the listed Ratio Ki is 1120

For record "CN1Cc2c(nn(Cc3ccc(C(F)(F)F)cc3)c2Nc2ccccc2)N2C1=N[C@@H]1CCC[C@@H]12" the listed Ratio Ki is 841

For record "CN1C(=O)c2c(Nc3ccccc3)n[nH]c2N2C1=N[C@@H]1CCC[C@@H]12" the listed Ratio Ki is 7
